Origin of the recorded values: the supplement of paper PMC10307832

system: HCC-78; test: relative viability (nuclei count vs DMSO), 5 days (fraction); higher = more cells survive; conditions: first compound 4 µM
Simple rule here: relative viability less than 0.5 is rule met, otherwise rule not met.

- Compound: "Clc1ccc(Nc2nnc(Cc3ccncc3)c3ccccc23)cc1 [Vatalanib] + O=C(CCCCCCC(=O)Nc1ccccc1)NO [Vorinostat] (partner 1 µM)"
  Discrete label: "rule met"
- Compound: "Clc1ccc(Nc2nnc(Cc3ccncc3)c3ccccc23)cc1 [Vatalanib] + C[C@]1(O)C[C@@H](c2nc(-c3ccc4ccc(-c5ccccc5)nc4c3)c3c(N)nccn32)C1 [Linsitinib] (partner 1 µM)"
  Discrete label: "rule met"
- Compound: "C[C@@H]1CN(CC(=O)Nc2ccc3c(c2)Cc2cccc(-c4cc(=O)cc(N5CCOCC5)o4)c2S3)C[C@H](C)O1 + CC(=O)Nc1cccc(-n2c(=O)n(C3CC3)c(=O)c3c(Nc4ccc(I)cc4F)n(C)c(=O)c(C)c32)c1 [Trametinib] (partner 0.02 µM)"
  Discrete label: "rule not met"
- Compound: "C[C@@H]1CN(CC(=O)Nc2ccc3c(c2)Cc2cccc(-c4cc(=O)cc(N5CCOCC5)o4)c2S3)C[C@H](C)O1 + N=C(N)NC(=N)NCCc1ccccc1 [Phenformin] (partner 250 µM)"
  Discrete label: "rule not met"
